Origin of measurements: patent US6110888A

Test system: Aspergillus niger
Assay: MIC, A. niger (Table 2)
Assay type: cell-based
Conditions: A. niger strain 16404, fungi, read-out: Anti-Microbial Activity MIC, A. niger
The following molecules are shown together with reported MIC values.
value.kind: MIC (µg/mL)

{"molecule": "C=CCc1cc(C)c(O)cc1C(C)C", "assay.result": 125}
{"molecule": "Cc1ccc(C(C)C)c(O)c1 [Thymol, thymol, reference compound]", "assay.result": 125}
{"molecule": "C=CCc1cc(C(C)C)c(O)cc1C", "assay.result": 125}
{"molecule": "C=CCc1c(C(C)C)ccc(C)c1O", "assay.result": 125}
{"molecule": "C=CCc1c(C)ccc(C(C)C)c1O", "assay.result": 125}

---

Tested on: Staphylococcus epidermidis
Assay: MIC, S. epidermidis (Table 1)
Assay type: cell-based
Settings: S. epidermidis strain 1228, gram+, read-out: Anti-Microbial Activity MIC, S. e.
value.kind: MIC (µg/mL)

{"compound": "C=CCc1c(C)ccc(C(C)C)c1O [Example 1a, Ortho Allyl Thymol]", "value.kind": "MIC", "assay.result": 62.5}
{"compound": "CCCc1c(C(C)C)ccc(C)c1O [Example 4a, Ortho Propyl Carvacrol]", "value.kind": "MIC", "assay.result": 31.2}
{"compound": "C=CCc1cc(C)c(O)cc1C(C)C [Example 2b, Para Allyl Carvacrol]", "value.kind": "MIC", "assay.result": 62.5}
{"compound": "CCCc1cc(C)c(O)cc1C(C)C [Example 4b, Para Propyl Carvacrol]", "value.kind": "MIC", "assay.result": 31.2}
{"compound": "C=CCc1cc(C(C)(C)C)ccc1O [Example 5, Ortho Allyl Para tert-Butyl Phenol]", "value.kind": "MIC", "assay.result": 31.2}
{"compound": "CCCc1c(C)ccc(C(C)C)c1O [Example 3a, Ortho Propyl Thymol]", "value.kind": "MIC", "assay.result": 62.5}
{"compound": "CCCc1cc(C(C)(C)C)ccc1O [Example 6, Ortho Propyl Para tert-Butyl Phenol]", "value.kind": "MIC", "assay.result": 15.6}
{"compound": "C=CCc1cc(C(C)C)c(O)cc1C [Example 1b, Para Allyl Thymol]", "value.kind": "MIC", "assay.result": 62.5}
{"compound": "C=CCc1c(C(C)C)ccc(C)c1O [Example 2a, Ortho Allyl Carvacrol]", "value.kind": "MIC", "assay.result": 62.5}
{"compound": "Cc1ccc(C(C)C)c(O)c1 [Thymol, thymol, reference compound]", "value.kind": "MIC", "assay.result": 250}
{"compound": "CCCc1cc(C(C)C)c(O)cc1C [Example 3b, Para Propyl Thymol]", "value.kind": "MIC", "assay.result": 31.2}
